Biological target: dDAT expressed in COS-7 cells (Drosophila melanogaster, UniProt Q7K4Y6)
Construct: Full length dDAT with a C-terminal thrombin cleavage site followed by a His8-tag; expressed in transfected cells; host or cells: COS-7 cells, transient transfection
Sequence (Q7K4Y6 whole entry): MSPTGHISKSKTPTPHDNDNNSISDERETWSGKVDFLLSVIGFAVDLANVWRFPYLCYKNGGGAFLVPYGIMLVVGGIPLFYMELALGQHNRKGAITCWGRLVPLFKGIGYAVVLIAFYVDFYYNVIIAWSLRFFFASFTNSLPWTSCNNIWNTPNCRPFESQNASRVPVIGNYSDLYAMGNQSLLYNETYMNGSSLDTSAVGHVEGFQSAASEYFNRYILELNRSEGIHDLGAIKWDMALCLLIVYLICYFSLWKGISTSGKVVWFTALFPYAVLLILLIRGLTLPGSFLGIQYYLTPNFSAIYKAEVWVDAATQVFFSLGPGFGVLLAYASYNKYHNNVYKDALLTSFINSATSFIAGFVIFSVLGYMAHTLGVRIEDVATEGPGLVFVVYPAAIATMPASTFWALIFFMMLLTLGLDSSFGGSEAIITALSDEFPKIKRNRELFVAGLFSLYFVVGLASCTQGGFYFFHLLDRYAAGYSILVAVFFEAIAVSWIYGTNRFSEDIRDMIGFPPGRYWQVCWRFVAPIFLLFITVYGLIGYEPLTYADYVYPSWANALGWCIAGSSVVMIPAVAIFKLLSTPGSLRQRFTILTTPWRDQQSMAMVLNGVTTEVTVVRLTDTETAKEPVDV
Test: Competition binding of [3H]nisoxetine in COS-7 cells expressing dDAT
Conditions: dDAT in COS-7 cells; competitive inhibition of [3H]nisoxetine binding; mean [SEM interval]
Method: COS-7 cells (a generous gift from Prof. U. Gether, Univ. of Copenhagen) were transiently transfected in Opti-MEM media (ThermoFisher Scientific, Waltham, MA, USA) using lipofectamine 3000 (ThermoFisher Scientific, Waltham, MA, USA) with 0.36 µg hDAT in the pcDNA3.1 vector, 0.36–0.47 µg hNET in the pcDNA3.1 vector or 0.83–1.6 µg dDAT in pEG BacMam vector per 10^6 cells, in a lipofectamine:DNA (w/w) ratio of 3.5. […]
experimentalEndpoint: pKi
Answers are plain numbers, as −log10 of the molar value.

{"compound": "COC(=O)[C@H]1C(c2ccc(I)cc2)C[C@@H]2CC[C@H]1N2C (some centres unmarked)", "recordedMeasurement": 6.52}

// switching to the query compound
Task item: For the compound shown here, COC(=O)[C@H]1[C@@H](c2ccc(F)cc2)C[C@@H]2CC[C@H]1N2C , give the reported pKi.
Reply: 5.41
